experiment: BSK_3C_TissueFactor: BioMAP Diversity Plus: 3C Assay for Tissue Factor Biomarker Activity (AID 2282997); details: BioMAP 3C HUVEC, tissue factor biomarker readout; actives raise or lower the signal
Activity calls are given as the source filed them. Rule for the calls: active = hit-call score of the fitted dose curve at least 0.9, where 1 is the maximum; inactive = score below 0.9.
Possible outcomes: YES (active), NO (inactive)

[[record]]
molecule = "Clc1ccc(-c2ccccc2)cc1"
discrete_label = "NO"

[[record]]
molecule = "Oc1cc(Cl)ccc1Cl"
discrete_label = "NO"

[[record]]
molecule = "O=c1c2ccccc2c(=O)c2c1cc(Cl)c1[nH]c3c([nH]c12)c(Cl)cc1c(=O)c2ccccc2c(=O)c13"
discrete_label = "YES"

[[record]]
molecule = "O=C1C(Cl)=C(Cl)C(=O)C(Cl)=C1Cl"
discrete_label = "YES"

[[record]]
molecule = "CCCC[N+](CCCC)(CCCC)CCCC"
discrete_label = "NO"

[[record]]
molecule = "CC1(C)[C@H](C(=O)O[C@H](C#N)c2cccc(Oc3ccccc3)c2)[C@@H]1C=C(Br)Br"
discrete_label = "NO"

[[record]]
molecule = "CC(=O)/C=C/c1ccccc1"
discrete_label = "NO"

[[record]]
molecule = "CCC(C)c1cc([N+](=O)[O-])cc([N+](=O)[O-])c1OC(=O)C=C(C)C (configuration not stated)"
discrete_label = "YES"

[[record]]
molecule = "CC(C)CCCCCCCOC(=O)c1ccccc1C(=O)OCCCCCCCC(C)C"
discrete_label = "NO"

[[record]]
molecule = "CC(C)(c1cc(Cl)c(O)c(Cl)c1)c1cc(Cl)c(O)c(Cl)c1"
discrete_label = "YES"

[[record]]
molecule = "Nc1ccc(-c2ccc(N)c(N)c2)cc1N"
discrete_label = "YES"

[[record]]
molecule = "C=CCN(CC=C)C(=O)C(Cl)Cl"
discrete_label = "NO"

[[record]]
molecule = "CC(C)(C)C(=O)CCl"
discrete_label = "YES"

[[record]]
molecule = "O=[N+]([O-])C=Cc1ccccc1"
discrete_label = "YES"

[[record]]
molecule = "CC(C)(C)C(O)C(Oc1ccc(-c2ccccc2)cc1)n1cncn1 (configuration not stated)"
discrete_label = "NO"

[[record]]
molecule = "N#CCCCCC#N"
discrete_label = "NO"

[[record]]
molecule = "CCCCCCCCCCCC#N"
discrete_label = "NO"

